# Tested on: asparaginase I
# assay_protocol: Effect of media composition and inducer on asparaginase I, Example 10
# Assay type: cell-based, Rhodococcus sp. DAP 96253
# experimental_parameters: YEMEA - Glucose, Without Cobalt; inducer 1000 ppm
Quick list: Asparaginase I levels per entry.
quantity_measured: Asparaginase I levels (units/mg cell dry weight)

| compound | quantity_measured | assay_value |
| --- | --- | --- |
| NC(=O)C[C@H](N)C(=O)O | Asparaginase I levels | 5.3 |
| NC(=O)CC[C@H](N)C(=O)O | Asparaginase I levels | 1.5 |
| CC(C)CC#N [Isovaleronitrile, isovaleronitrile, reference compound] | Asparaginase I levels | 3.5 |
| N#CCCC#N [Succinonitrile, succinonitrile, reference compound] | Asparaginase I levels | 6.5 |
